molecular target: MNK1 (Homo sapiens); test: MNK1 substrate phosphorylation assay; assay type: biochemical; conditions: recombinant human kinase
Sequence (Q9BUB5 whole entry): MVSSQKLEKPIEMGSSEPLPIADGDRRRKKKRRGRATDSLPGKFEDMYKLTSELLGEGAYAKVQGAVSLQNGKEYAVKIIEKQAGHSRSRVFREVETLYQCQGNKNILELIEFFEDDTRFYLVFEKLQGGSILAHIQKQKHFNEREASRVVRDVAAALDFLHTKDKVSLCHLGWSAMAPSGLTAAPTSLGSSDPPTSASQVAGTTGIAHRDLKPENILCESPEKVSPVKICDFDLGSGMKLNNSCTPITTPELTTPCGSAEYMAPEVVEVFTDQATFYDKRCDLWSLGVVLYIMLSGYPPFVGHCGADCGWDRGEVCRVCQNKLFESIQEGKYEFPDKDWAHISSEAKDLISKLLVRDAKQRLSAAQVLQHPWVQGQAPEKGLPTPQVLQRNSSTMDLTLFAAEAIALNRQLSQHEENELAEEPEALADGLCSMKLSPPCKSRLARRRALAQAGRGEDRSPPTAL
observable: pIC50
Give bare numbers, as −log10 of the molar value.

CC1=CC2(CCC1)NC(=O)c1c(C)cc(Nc3cc(N)ncn3)c(=O)n12 (stereo not shown) [Compound 4ET-01-058] : 7.23
Cc1cc(Nc2cc(NC(=O)C3CC3)ncn2)c(=O)n2c1C(=O)NC21Cc2ccccc2[C@@H]1F (single isomer, unassigned) [Compound 4ET-03-052B] : 7.70

For every record below, what is its pIC50?
1. Cc1cc(Nc2cc(N)ncn2)c(=O)n2c1C(=O)NC21CCOCC1 [Compound 4ET-01-002]
2. Cc1cc(Nc2cc(N)ncn2)c(=O)n2c1C(=O)NC21Cc2ccccc2[C@@H]1F (single isomer, unassigned) [Compound 4ET-01-010B]
3. Cc1cc(Nc2cc(NC(=O)C3CC3)ncn2)c(=O)n2c1C(=O)NC21CCOc2ccc(Cl)cc21 (stereo not shown) [Compound 4ET-03-036]
4. Cc1cc(Nc2cc(N)ncn2)c(=O)n2c1C(=O)NC21Cc2ccccc2[C@@H]1F (single isomer, unassigned) [Compound 4ET-01-010A]

1: 7.55; 2: 6.46; 3: 6.93; 4: 7.13

Hey, quick one: what's pIC50 for each of these?
1. Cc1cc(Nc2cc(NC(=O)C3CC3)ncn2)c(=O)n2c1C(=O)NC21Cc2ccccc2[C@@H]1O (stereo in doubt) [Compound 4ET-03-063]
2. Cc1cc(Nc2cc(N)ncn2)c(=O)n2c1C(=O)NC21C[C@H]2COC[C@H]2C1 (single isomer, unassigned) [Compound 4ET-01-014B]
3. Cc1cc(Nc2cc(NC(=O)C(C)C)ncn2)c(=O)n2c1C(=O)NC2(C)C [Compound 4ET-03-001]
4. CCC1=CC2(CCC1)NC(=O)c1c(C)cc(Nc3cc(NC(=O)C4CC4)ncn3)c(=O)n12 (stereo not shown) [Compound 4ET-03-039]

7.46
7.61
6.93
7.50

###

assay: Pharmacokinetic study, 4ET-01-021 with IV and PO dosing; format: in vivo, CD-1 male mice; settings: male, CD-1, mouse, plasma, po; orally dosed at 3 mg/kg, mean of 3 animals; read-out: Clast
observable: concentration at 24 h (ng/mL)
Give bare numbers, in ng/mL.

Recorded concentration at 24 h for CCC1=CC2(CCC1)NC(=O)c1c(C)cc(Nc3cc(N)ncn3)c(=O)n12 (stereo not shown) , please?
36.3

###

assay: Pharmacokinetic study, 4ET-01-021 with IV and PO dosing; type: in vivo, CD-1 male mice; conditions: male, CD-1, mouse, plasma, po; orally dosed at 10 mg/kg, mean of 3 animals; read-out: Clast
observable: concentration at 24 h (ng/mL)
Answers are plain numbers, in ng/mL.

Bench note: what concentration at 24 h did CCC1=CC2(CCC1)NC(=O)c1c(C)cc(Nc3cc(N)ncn3)c(=O)n12 (stereo not shown) show?
99.5

###

target: death-associated protein kinase-related apoptosis-inducing protein kinase 1 (DRAK1) (Homo sapiens); experiment: Off-target kinase screen DRAK1; assay type: biochemical; conditions: 1 μM test compound
Sequence (Q9UEE5 whole entry): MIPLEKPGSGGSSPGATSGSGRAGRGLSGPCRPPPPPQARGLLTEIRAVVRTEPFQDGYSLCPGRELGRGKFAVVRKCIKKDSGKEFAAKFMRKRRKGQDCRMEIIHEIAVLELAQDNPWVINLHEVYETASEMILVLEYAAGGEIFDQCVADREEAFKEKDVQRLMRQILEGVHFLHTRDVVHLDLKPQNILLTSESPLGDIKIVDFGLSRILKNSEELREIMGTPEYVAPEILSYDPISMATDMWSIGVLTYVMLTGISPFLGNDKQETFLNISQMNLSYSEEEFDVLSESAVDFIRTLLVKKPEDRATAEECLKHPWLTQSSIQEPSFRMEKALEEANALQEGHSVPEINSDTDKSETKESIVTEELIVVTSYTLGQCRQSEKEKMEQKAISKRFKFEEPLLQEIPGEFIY
Task for the reader: assign each of the following molecules its reported remaining activity at 1 µM.
Answers are plain numbers, in %.

Cc1cc(Nc2cc(N)ncn2)c(=O)n2c1C(=O)NC21CCCCC1 [eFT508, reference compound] : 24
Cc1cc(Nc2cc(NCCNS(C)(=O)=O)ncn2)c(=O)n2c1C(=O)NC21CCCCC1 : 86
Cc1cc(Nc2cc(N)ncn2)c(=O)n2c1C(=O)NC2(C)C : 65
Cc1cc(Nc2cc(NC(=O)C3CC3)ncn2)c(=O)n2c1C(=O)NC21CCCC1 : 9

Hi! Can you tell me remaining activity at 1 µM for each of these molecules?
1. Cc1cc(Nc2cc(N)ncn2)c(=O)n2c1C(=O)NC21CCC(NS(C)(=O)=O)CC1 (stereo not drawn)
2. Cc1cc(Nc2cc(NC(=O)C3CC3)ncn2)c(=O)n2c1C(=O)NC21CCC(O)CC1 (stereo not drawn)

1: 76; 2: 16

From: patent US20230286983A1
